- ASSAY SYSTEM: Interstitial collagenase (Homo sapiens) (UniProt P03956)
- Sequence (P03956 whole entry): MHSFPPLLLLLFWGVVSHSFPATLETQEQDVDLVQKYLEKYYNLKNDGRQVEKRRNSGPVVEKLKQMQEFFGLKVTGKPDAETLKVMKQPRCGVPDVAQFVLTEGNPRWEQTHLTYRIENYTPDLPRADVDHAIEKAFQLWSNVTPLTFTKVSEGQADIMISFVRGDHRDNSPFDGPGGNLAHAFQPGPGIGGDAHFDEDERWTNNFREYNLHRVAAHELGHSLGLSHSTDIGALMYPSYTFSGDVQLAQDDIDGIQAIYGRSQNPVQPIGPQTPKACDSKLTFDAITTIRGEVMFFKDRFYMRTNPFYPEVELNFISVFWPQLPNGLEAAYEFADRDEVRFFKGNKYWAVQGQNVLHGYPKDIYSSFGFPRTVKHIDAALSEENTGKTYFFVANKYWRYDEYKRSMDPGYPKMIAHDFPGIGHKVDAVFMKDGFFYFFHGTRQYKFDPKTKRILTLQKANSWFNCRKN
- DETAILS: at 1 mM
Respond with Y for inhibition values of 60% and above, N for values below.

MOLECULE	ASSAY SYSTEM	CLASS ASSIGNMENT
O=C(O)c1cccc(O)n1	Interstitial collagenase (Homo sapiens) (UniProt P03956)	N
Nc1cccc(C(=O)O)c1O	Interstitial collagenase (Homo sapiens) (UniProt P03956)	Y
Cc1occc(=S)c1O	Interstitial collagenase (Homo sapiens) (UniProt P03956)	Y
Cc1cc(O)nc(O)n1	Interstitial collagenase (Homo sapiens) (UniProt P03956)	N
O=C(O)c1cccc(Br)n1	Interstitial collagenase (Homo sapiens) (UniProt P03956)	N
CCn1ccc(=O)c(O)c1C	Interstitial collagenase (Homo sapiens) (UniProt P03956)	N
O=c1occcc1O	Interstitial collagenase (Homo sapiens) (UniProt P03956)	Y
O=C(O)c1cccc(=O)n1O	Interstitial collagenase (Homo sapiens) (UniProt P03956)	Y
c1ccc(CNCc2ccccn2)nc1	Interstitial collagenase (Homo sapiens) (UniProt P03956)	Y
CC(=O)C1CCCC1=O (stereo unspecified)	Interstitial collagenase (Homo sapiens) (UniProt P03956)	N
O=C(O)c1cccc[n+]1[O-]	Interstitial collagenase (Homo sapiens) (UniProt P03956)	N
O=C(O)c1ccc(F)cc1O	Interstitial collagenase (Homo sapiens) (UniProt P03956)	N
Cc1ccc(C(=O)O)c(C(=O)O)n1	Interstitial collagenase (Homo sapiens) (UniProt P03956)	N
Oc1ccccc1-c1nc2ccccc2s1	Interstitial collagenase (Homo sapiens) (UniProt P03956)	N
Cc1cc(=O)c(O)co1	Interstitial collagenase (Homo sapiens) (UniProt P03956)	N
O=c1cccccc1O	Interstitial collagenase (Homo sapiens) (UniProt P03956)	Y
Cc1cc(C)nc(S)n1	Interstitial collagenase (Homo sapiens) (UniProt P03956)	N
COc1ccccc1S	Interstitial collagenase (Homo sapiens) (UniProt P03956)	N
Oc1cccnc1O	Interstitial collagenase (Homo sapiens) (UniProt P03956)	N
Oc1nccc(S)n1	Interstitial collagenase (Homo sapiens) (UniProt P03956)	Y
O=C(O)c1nc(Cl)ccc1Cl	Interstitial collagenase (Homo sapiens) (UniProt P03956)	N
Oc1ccccc1O	Interstitial collagenase (Homo sapiens) (UniProt P03956)	N
O=C(O)c1cc(F)ccc1O	Interstitial collagenase (Homo sapiens) (UniProt P03956)	N
Cc1cccc(C(=O)O)n1	Interstitial collagenase (Homo sapiens) (UniProt P03956)	N
C1CNCCNCCN1	Interstitial collagenase (Homo sapiens) (UniProt P03956)	Y
Cc1cc(O)nc(C)n1	Interstitial collagenase (Homo sapiens) (UniProt P03956)	N
CCCCc1ccc(C(=O)O)nc1	Interstitial collagenase (Homo sapiens) (UniProt P03956)	N
O=c1ccc2ccccc2[nH]1	Interstitial collagenase (Homo sapiens) (UniProt P03956)	N
O=C(O)c1cccc2cccnc12	Interstitial collagenase (Homo sapiens) (UniProt P03956)	N
[O-][n+]1ccccc1S	Interstitial collagenase (Homo sapiens) (UniProt P03956)	Y
O=C(O)c1nccc2ccccc12	Interstitial collagenase (Homo sapiens) (UniProt P03956)	N
Cc1c(O)c(=S)ccn1C	Interstitial collagenase (Homo sapiens) (UniProt P03956)	Y
O=C(O)c1ccc2cccc(O)c2n1	Interstitial collagenase (Homo sapiens) (UniProt P03956)	Y
Cn1cccc(O)c1=S	Interstitial collagenase (Homo sapiens) (UniProt P03956)	Y
Cc1occc(=O)c1O	Interstitial collagenase (Homo sapiens) (UniProt P03956)	N
Oc1ncccn1	Interstitial collagenase (Homo sapiens) (UniProt P03956)	Y

* * *

- ASSAY SYSTEM: UniProt:P09917
- Sequence (whole entry): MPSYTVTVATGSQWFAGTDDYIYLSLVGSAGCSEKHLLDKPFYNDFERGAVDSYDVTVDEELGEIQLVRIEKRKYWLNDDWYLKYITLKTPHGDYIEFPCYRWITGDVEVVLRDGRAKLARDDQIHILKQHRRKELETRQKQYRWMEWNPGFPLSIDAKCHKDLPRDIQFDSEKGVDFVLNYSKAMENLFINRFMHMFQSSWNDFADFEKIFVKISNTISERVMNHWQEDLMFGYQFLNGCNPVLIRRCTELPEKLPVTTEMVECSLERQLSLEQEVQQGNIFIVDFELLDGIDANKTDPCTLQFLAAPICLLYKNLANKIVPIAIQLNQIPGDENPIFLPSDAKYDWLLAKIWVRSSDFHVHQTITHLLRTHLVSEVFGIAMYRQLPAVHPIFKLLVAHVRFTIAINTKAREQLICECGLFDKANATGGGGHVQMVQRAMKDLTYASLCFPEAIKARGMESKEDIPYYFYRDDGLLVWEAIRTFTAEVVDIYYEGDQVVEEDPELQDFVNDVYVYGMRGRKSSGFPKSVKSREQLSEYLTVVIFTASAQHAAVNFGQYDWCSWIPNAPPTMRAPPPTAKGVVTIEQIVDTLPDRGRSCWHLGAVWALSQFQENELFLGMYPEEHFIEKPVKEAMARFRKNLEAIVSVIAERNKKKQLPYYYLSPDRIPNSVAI
- TEST PROTOCOL: Inhibition of human recombinant 5-lipoxygenase at 1 mM after 10 mins by fluorescence assay
Respond with Y for inhibition values of 60% and above, N for values below.

COMPOUND	CLASS ASSIGNMENT
Cc1ccc(C(=O)O)c(C(=O)O)n1	N
Cc1ccc(O)c(C(=O)O)c1	N
c1ccc(CNCc2ccccn2)nc1	N
CCn1ccc(=S)c(O)c1C	Y
CC(=O)C1CCCC1=O (stereo not drawn)	Y
Oc1ccccc1O	Y
O=C(O)c1cccc(O)n1	N

* * *

# inhibition values compiled below
- ASSAY SYSTEM: Stromelysin-1 (Homo sapiens);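 further: recombinant enzyme, inhibition read after a 30 min incubation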
- DETAILS: at 1 mM

COMPOUND	inhibition / %
CC(=O)NO [ACETOHYDROXAMIC ACID]	5
O=C(O)c1ccc(O)cc1O	3
Oc1coccc1=S	98
[O-][n+]1ccccc1S	100
COc1ccccc1S	-8
CC(=O)C(C)C(C)=O	-1
C1CNCCNCCN1	48
Oc1ccccc1O	1
CCCCc1ccc(C(=O)O)nc1	80
CC(=O)C1CCCC1=O (configuration not stated)	4
CC(=O)CC(C)=O	-4
Cc1cccc(C(=O)O)c1O	13
Cc1cc(=O)[nH]c(=S)[nH]1	37
Nc1cccc(C(=O)O)c1O	72
OCc1ccnc(-c2cc(CO)ccn2)c1	96
Cc1cc(O)nc(C)n1	6
Oc1ccccc1-c1nc2ccccc2o1	4

* * *

- ASSAY SYSTEM: Matrix metalloproteinase-9 (Homo sapiens) (UniProt P14780);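 further: recombinant human MMP9, activity read after 30 min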
- Sequence (P14780 whole entry): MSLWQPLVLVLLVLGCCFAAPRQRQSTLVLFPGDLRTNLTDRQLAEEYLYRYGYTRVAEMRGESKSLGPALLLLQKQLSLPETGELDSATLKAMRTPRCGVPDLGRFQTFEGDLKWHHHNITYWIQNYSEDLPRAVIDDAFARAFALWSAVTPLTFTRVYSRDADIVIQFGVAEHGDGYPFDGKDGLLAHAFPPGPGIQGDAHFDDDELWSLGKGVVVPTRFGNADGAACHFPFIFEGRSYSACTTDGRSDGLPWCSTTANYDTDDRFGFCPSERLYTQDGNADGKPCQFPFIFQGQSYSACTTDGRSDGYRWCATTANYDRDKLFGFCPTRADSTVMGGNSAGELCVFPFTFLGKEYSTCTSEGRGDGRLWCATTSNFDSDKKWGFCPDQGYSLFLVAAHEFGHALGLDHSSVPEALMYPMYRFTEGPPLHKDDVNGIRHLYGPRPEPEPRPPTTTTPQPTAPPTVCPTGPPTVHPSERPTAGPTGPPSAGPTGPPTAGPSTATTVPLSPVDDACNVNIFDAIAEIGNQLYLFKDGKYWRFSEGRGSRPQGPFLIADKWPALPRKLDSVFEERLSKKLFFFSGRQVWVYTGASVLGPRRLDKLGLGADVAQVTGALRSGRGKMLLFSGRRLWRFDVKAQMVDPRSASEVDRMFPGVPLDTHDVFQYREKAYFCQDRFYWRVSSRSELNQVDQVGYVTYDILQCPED
- DETAILS: at 1 mM
ASSAY READOUT: inhibition

COMPOUND	RECORDED VALUE
Cn1cccc(O)c1=O	8%
O=C(O)c1ccccc1O	12%
Cn1cccc(O)c1=S	96%
Cc1c(O)c(=S)ccn1C	100%
O=C(O)c1ccccn1	0%
Oc1coccc1=S	100%
Cc1cc(C)nc(S)n1	56%
Nc1cc(=O)nc(N)[nH]1	2%
CC(C)c1cccc(C(=O)O)c1O	9%
O=C(O)c1cccc(O)n1	16%
O=C(O)c1cccc(O)c1O	11%
Cc1cccc(C(=O)O)n1	-6%
Oc1ccccc1O	10%
Cc1cc(O)nc(C)n1	1%
O=C(O)c1cccc2cccnc12	31%
O=C(O)c1cc(O)ccc1O [GENTISIC ACID]	40%
O=C(O)c1ncccc1O	19%

* * *

- ASSAY SYSTEM: UniProt P14780
- DETAILS: at 1 mM
Would you mind sorting the entries by inhibition according to these classes? bin 0: < 20%; bin 1: ≥ 20% and < 40%; bin 2: ≥ 40%

COMPOUND	CLASS ASSIGNMENT
Cc1ccc2cccc(O)c2n1	bin 1
Oc1ccc2ccccc2c1O	bin 2
Cc1cccc(C(=O)O)c1O	bin 0
NC(=O)c1ccccc1O	bin 1
CCc1occc(=O)c1O	bin 1
CC(=O)C1CCCC1=O (configuration not stated)	bin 1
c1cnc2c(c1)ccc1cccnc12	bin 2
O=C(O)c1cccc(Br)n1	bin 0
O=C(O)c1ccc(O)cc1O	bin 0
O=c1cc[nH]c(=S)[nH]1	bin 2
O=c1ccocc1O	bin 2
Cc1ccc(O)c(C(=O)O)c1	bin 0
O=C1C=C(O)C(=O)c2ccccc21	bin 2
CC(C)c1cccc(=O)c(O)c1	bin 2
Cc1occc(=S)c1O	bin 2
Cc1cc(=O)c(O)co1	bin 1
COc1ccccc1S	bin 0

* * *

# inhibition values compiled below
- ASSAY SYSTEM: Interstitial collagenase (Homo sapiens) (UniProt P03956);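 further: recombinant human enzyme, with inhibition measured after 30 min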
- DETAILS: at 1 mM

MOL	inhibition (%)
CC(=O)CC(C)=O	10
Cc1ccc(O)c(C(=O)O)c1	28
O=C(O)c1cccc(C(=O)O)n1	7
CCc1c(O)c(=S)ccn1CC	81
O=C(O)c1ccccc1O	-1
O=c1cc(CCl)occ1O	67
CCc1occc(=O)c1O	39
O=C(O)c1ccccn1	3
CC(=O)C(Cl)C(C)=O	11
NC(=O)c1ccccc1O	21
Cc1occ(O)c(=O)c1C(=O)O	60
O=c1cc(CO)occ1O	59
Oc1coccc1=S	99
COc1ccccc1O	8
CC(=O)C(C)C(C)=O	10
OCc1ccnc(-c2cc(CO)ccn2)c1	72
CCC(C(C)=O)C(C)=O	7
CS(=O)(=O)Nc1cccc2cccnc12	57
CCn1ccc(=S)c(O)c1C	98
Cc1nc(O)nc(O)c1C	11
Cn1cccc(O)c1=O	17
O=C(O)c1ccc(C(=O)O)nc1	0
[O-][n+]1cccc2cccc(O)c21	70
O=c1ccocc1O	48
O=C(O)c1ncccc1O	55
Nc1cccc2cccnc12	63
O=C(O)c1ccc(O)c(O)c1	14

Source: ChEMBL document CHEMBL1649420
